Quick reference for pKi among some compounds
system name: human Src kinase (Homo sapiens)
Construct: 25 nM of recombinant human Src kinase
Sequence (P12931 whole entry): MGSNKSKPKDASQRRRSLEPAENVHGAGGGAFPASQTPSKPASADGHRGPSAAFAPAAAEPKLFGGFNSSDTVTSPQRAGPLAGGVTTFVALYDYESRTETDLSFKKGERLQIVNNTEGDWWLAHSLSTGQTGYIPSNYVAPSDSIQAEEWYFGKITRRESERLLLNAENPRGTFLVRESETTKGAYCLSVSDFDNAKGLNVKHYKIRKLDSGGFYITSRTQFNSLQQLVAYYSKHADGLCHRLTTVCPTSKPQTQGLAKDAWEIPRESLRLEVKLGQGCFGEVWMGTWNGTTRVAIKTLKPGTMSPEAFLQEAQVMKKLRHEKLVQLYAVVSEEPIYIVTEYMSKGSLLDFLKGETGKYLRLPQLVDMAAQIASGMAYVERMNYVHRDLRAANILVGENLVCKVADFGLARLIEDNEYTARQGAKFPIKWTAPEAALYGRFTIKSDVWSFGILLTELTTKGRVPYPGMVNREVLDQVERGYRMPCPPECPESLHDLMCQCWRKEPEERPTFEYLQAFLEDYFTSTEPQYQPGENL
protocol description: Src inhibition assay B: spectrophotometric (uv-vis) coupled enzyme assay
run conditions: 100 μM ATP
pKi: −log10 of the molar value.

{"smiles representation": "c1ccc(Nc2ncn(-c3ccnc(N4CCCCCCC4)c3)n2)cc1", "pKi": "> 6.30"}

query: Could you tell me which pKi is on file for CN(CCO)c1cc(-n2cnc(Nc3ccccc3)n2)ccn1 ?
result: < 6.00

query: Could you tell me which pKi is on file for COC(=O)Nc1ccc(Nc2ncn(-c3ccnc(N4C[C@@H](C)N(C(C)=O)[C@@H](C)C4)c3)n2)cc1 ?
result: > 6.30

query: Could you tell me which pKi is on file for O=C(Nc1cc(-n2cnc(Nc3ccccc3)n2)ccn1)C1CCCCC1 ?
result: 6.00 to 6.30

query: Could you tell me which pKi is on file for c1ccc(-n2cnc(Nc3ccnc(NCCN4CCOCC4)c3)n2)cc1 ?
result: < 6.00

query: Could you tell me which pKi is on file for CC(=O)N1[C@H](C)CN(c2cc(-n3cnc(Nc4ccc(N)cc4)n3)ccn2)C[C@@H]1C ?
result: > 6.30
